molecular target: WT and Cys mutant hCB1R variants; experiment: Saturation binding of [^3H]CP55,940, Flp-In-293 membranes; parameters: species or system human; conditions: average across all six hCB1R variants; mean ± SEM, n = 6
measured-property: pKd
Please treat pKd as minus the base-10 logarithm of the molar concentration.

Would you mind telling me what pKd value was observed for CCCCCCC(C)(C)c1ccc([C@@H]2C[C@H](O)CC[C@H]2CCCO)c(O)c1 [CP55,940, reference compound] ? 8.27

----------
biological target: hCB1R C7.38(382)S (Homo sapiens, UniProt P21554, C382S); test: Competition binding with [^3H]CP55,940, Flp-In-293 membranes; settings: read-out: apparent Ki (95% CI); C7.38(382)S mutant; [^3H]CP55,940 0.75 nM
measured-property: Ki (nM)
Give the quantity in nM, number only.

Would you mind telling me what Ki value was observed for O=C(CCC/C=C\C/C=C\C/C=C\C/C=C\CCCCCN=C=S)NC1CC1 ? 1.9
